Origin of values: PubChem BioAssay AID1159580

ASSAY TEXT: chemical genetic growth profiling, strain panel (AID 1159580);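 also: tested at 20 µM; growth read once vehicle control cultures reached saturation at 30 °C; 1 = growth at the plate median or of vehicle wells; lower values mean less growth of the strain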
SETTINGS: S. cerevisiae deletion strains, growth OD, locus YCL016C, strain dcc1, stronger effect = lower value
The whole screen tested about 5,500 compounds, of which about 2,000 (36%) were called active. Another 18% or so got no clear call; they are omitted. The list shows a part of the results.
Assignment: determine reported normalized growth for the given compounds.
Answers are plain numbers.

COMPOUND	normalized growth
c1ccc2nc(N3CCNCC3)ccc2c1	1.01
CC(=O)N=c1sc(S(N)(=O)=O)nn1C	1.01
CC1CCC2(OC1)OC1CC3C4CCC5C[C@@H](O)CCC5(C)C4=CCC3(C)C1[C@@H]2C (stereo partly specified)	1
COc1cc([C@@H]2c3cc4c(cc3[C@H](OC(C)=O)[C@H]3COC(=O)[C@@H]23)OCO4)cc(OC)c1OC	1

Answer for every listed entry: what is its normalized growth? The entries follow.
1. COc1c(Cl)ccc(Cl)c1C(=O)O
2. Nc1ccncc1
3. CN(C)CCC(c1ccc(Br)cc1)c1ccccn1 (stereo unspecified)

1: 0.986; 2: 1; 3: 0.979

Answer for every listed entry: what is its normalized growth? The entries follow.
1. C=C1C2CC[C@@]3(C)[C@H](c4ccoc4)OC(=O)C[C@]13O[C@H]1CC(=O)C(C)(C)C(CC(=O)OC)[C@@]21C (stereo partly specified)
2. CC(=O)Nc1nnc(S(N)(=O)=O)s1

[1.01, 1]

Answer for every listed entry: what is its normalized growth? The entries follow.
1. Clc1ccc2c(c1)C(N1CCNCC1)=Nc1ccccc1O2
2. C=C1C2CCC3(C)C(c4ccoc4)OC(=O)CC13OC1CC(OC(C)=O)C(C)(C)C(CC(=O)OC)C12C (stereo unspecified)
3. C=C1[C@H]2CC[C@@]3(C)[C@H](c4ccoc4)OC(=O)C[C@]13O[C@H]1C[C@H](O)C(C)(C)[C@H](CC(=O)OC)[C@]12C

1: 0.979; 2: 1; 3: 1

Answer for every listed entry: what is its normalized growth? The entries follow.
1. C=C[C@H]1CN2CC[C@H]1C[C@@H]2[C@H](O)c1ccnc2ccccc12
2. COc1cc([C@H]2Oc3cc([C@H]4Oc5cc(O)cc(O)c5C(=O)[C@@H]4O)ccc3O[C@@H]2CO)ccc1O
3. CN1CCN(C2=Nc3ccccc3Oc3ccc(Cl)cc32)CC1
4. NS(=O)(=O)c1cc2c(cc1Cl)NC(C1CC3C=CC1C3)NS2(=O)=O (stereo unspecified)

1. 0.979
2. 0.992
3. 1
4. 0.995

* * *

ASSAY TEXT: chemical genetic growth profiling, strain panel (AID 1159580)
SETTINGS: S. cerevisiae deletion strains, growth OD, locus YMR307W, strain GAS1
The campaign covered roughly 5,500 compounds. About 2,000 (36%) were called active. Another 18% or so got no clear call; they are omitted. Cut-off read from the data, not from the text of the source: active = normalized growth mostly below about 0.91 (no sharp cut-off); inconclusive = no clear call, values can overlap the other calls; inactive = mostly above about 0.92. The list shows a part of the results. Where a SMILES comes first, the peptide text is derived from it.
Use one of these outcomes when replying: active, inactive

Example entries begin here.
COMPOUND	ANSWER LABEL
CC1CCC2(OC1)OC1CC3C4CCC5C[C@@H](O)CCC5(C)C4=CCC3(C)C1[C@@H]2C (stereo partly specified)	inactive
COc1cc([C@@H]2c3cc4c(cc3[C@H](OC(C)=O)[C@H]3COC(=O)[C@@H]23)OCO4)cc(OC)c1OC	inactive
O=C(O)CCCOc1ccc(Cl)cc1Cl	inactive
Cc1cccc(Nc2ccncc2S(=O)(=O)NC(=O)NC(C)C)c1	inactive
O=C1NC(c2cccc([N+](=O)[O-])c2)=CCN1c1ccccc1O	inactive

Test call, this compound: CCCC(C(=O)OCCN(CC)CC)(c1ccccc1)c1ccccc1
inactive

Test call, this compound: CCN(CC)CCOC(=O)C(c1ccccc1)c1ccccc1
inactive

Test call, this compound: NS(=O)(=O)c1cccc2c1c([N+](=O)[O-])cc1nc(O)c(O)nc12
inactive

Test call, this compound: NCCCCC(N)C(=O)NC(Cc1ccc(O)cc1)C(=O)NC(CCCCN)C(=O)O (stereo not drawn) (H-Lys-Tyr-Lys-OH; configuration not given here)
inactive

Test call, this compound: CN(C)CC[C@@H](c1ccc(Br)cc1)c1ccccn1
inactive

Test call, this compound: CCO/C([O-])=N/c1c[n+](N2CCOCC2)no1
inactive

* * *

ASSAY TEXT: chemical genetic growth profiling, strain panel (AID 1159580)
SETTINGS: S. cerevisiae deletion strains, growth OD, locus YHR094C, strain hxt1
Out of some 5,500 compounds screened, about 2,000 (36%) were called active. Not shown: some 18% with an inconclusive outcome. Rule as the data show it: active = normalized growth mostly below about 0.91 (no sharp cut-off); inconclusive = no clear call, values can overlap the other calls; inactive = mostly above about 0.92. This is one part of the list.
Use one of these outcomes when replying: 1 for active, -1 for inactive

Example entries begin here.
COMPOUND	ANSWER LABEL
N[C@@H]1[C@@H](O)[C@H](O)[C@@H](CO)O[C@H]1O	-1
N[C@@H](Cc1cc(I)c(Oc2cc(I)c(O)c(I)c2)c(I)c1)C(=O)O	-1
N[C@H](Cc1ccccc1)C(=O)O	-1
CC(CCC(=O)O)[C@H]1CCC2C3CC[C@@H]4C[C@H](O)CC[C@]4(C)C3CC[C@@]21C (stereo partly specified)	1

Test call, this compound: N[C@@H](Cc1cc(I)c(Oc2ccc(O)c(I)c2)c(I)c1)C(=O)O
-1

Test call, this compound: OC1=Cc2c(O)cc(O)cc2OC1(O)c1ccc(O)c(O)c1 (stereo unspecified)
-1

* * *

ASSAY TEXT: chemical genetic growth profiling, strain panel (AID 1159580)
SETTINGS: S. cerevisiae deletion strains, growth OD, locus YPR167C, strain met16
Hit rate of the full screen: of about 5,500 compounds, about 2,000 (36%) were called active. Not shown: some 18% with an inconclusive outcome. Rule as the data show it: active = normalized growth mostly below about 0.91 (no sharp cut-off); inconclusive = no clear call, values can overlap the other calls; inactive = mostly above about 0.92. This is one part of the list.
Use one of these outcomes when replying: active, inactive

Test call, this compound: CCCCCC1C(=O)CCC1CC(=O)OC (stereo unspecified)
inactive

Test call, this compound: C[C@@H](N)[C@@H](O)c1ccccc1
inactive

* * *

Assignment: determine reported normalized growth for the given compounds.
ASSAY TEXT: chemical genetic growth profiling, strain panel (AID 1159580);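 also: tested at 20 µM; growth read once vehicle control cultures reached saturation at 30 °C; 1 = growth at the plate median or of vehicle wells; lower values mean less growth of the strain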
SETTINGS: S. cerevisiae deletion strains, growth OD, locus YGL167C, strain pmr1, stronger effect = lower value
Out of some 5,500 compounds screened, about 2,000 (36%) were called active. About 18% were inconclusive and are not listed. Some of the results follow.
Give bare numbers.

Example entries and their recorded answers appear below.
COMPOUND	normalized growth
CCN(CC)C(C)CN1c2ccccc2Sc2ccccc21 (stereo unspecified)	0.999
C=C1C2CCC3(C)C(c4ccoc4)OC(=O)CC13OC1CC(OC(C)=O)C(C)(C)C(CC(=O)OC)C12C (stereo unspecified)	1.01
C=C[C@H]1CN2CC[C@H]1C[C@@H]2[C@H](O)c1ccnc2ccccc12	0.993

Answer for every listed entry: what is its normalized growth? The entries follow.
1. COc1c2ccccc2nc2occc12
2. NNCCc1ccccc1
3. CCN(CCCc1ccccc1)CCCc1ccccc1

0.949
1.01
0.983

* * *

ASSAY TEXT: chemical genetic growth profiling, strain panel (AID 1159580);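 also: tested at 20 µM; growth read once vehicle control cultures reached saturation at 30 °C; 1 = growth at the plate median or of vehicle wells; lower values mean less growth of the strain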
SETTINGS: S. cerevisiae deletion strains, growth OD, locus YJR075W, strain HOC1, stronger effect = lower value
In all, about 5,500 compounds went through this assay and about 2,000 (36%) were called active. Another 18% or so got no clear call; they are omitted. The list shows a part of the results.
REPORTED METRIC: normalized growth
Give bare numbers.

COMPOUND	normalized growth
COc1ccc(C(=O)CC(=O)c2ccc(C(C)(C)C)cc2)cc1	0.936
Nc1cc(-c2ccncc2)c[nH]c1=O	0.942

Answer for every listed entry: what is its normalized growth? The entries follow.
1. C/C(=N/Nc1c(Cl)cc(Cl)cc1Cl)c1cc(F)ccc1OC(=O)c1ccccc1F
2. Cn1nccc1NS(=O)(=O)c1cccc(Cl)c1
3. Clc1ccc2c(c1)C(N1CCNCC1)=Nc1ccccc1O2
4. CNCCCN1c2ccccc2CCc2ccccc21
5. CCN(CC)C(C)C(=O)N1c2ccccc2Sc2ccccc21 (configuration not stated)
6. Cc1cc(NS(=O)(=O)c2ccc(NS(=O)(=O)c3ccc(Cl)cc3)cc2)no1
7. CCCCSP(=O)(SCCCC)SCCCC

0.984
1.02
1
0.968
1.07
1.02
1.02

Answer for every listed entry: what is its normalized growth? The entries follow.
1. O=S(=O)(Nc1ccc(Oc2ccc(Cl)cc2)cc1)c1ccccc1
2. O=C1/C(=C/c2ccc(Cl)cc2)COc2ccc(F)cc21
3. Cc1ccc(S(=O)(=O)Nc2ccc(C)c([N+](=O)[O-])c2)cc1

1. 0.899
2. 0.98
3. 0.971

* * *

ASSAY TEXT: chemical genetic growth profiling, strain panel (AID 1159580);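 also: tested at 20 µM; growth read once vehicle control cultures reached saturation at 30 °C; 1 = growth at the plate median or of vehicle wells; lower values mean less growth of the strain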
SETTINGS: S. cerevisiae deletion strains, growth OD, locus YAL021C, strain ccr4, stronger effect = lower value
About 2,000 (36%) of roughly 5,500 compounds were called active. Inconclusive results (about 18%) are left out. Some of the results follow.
REPORTED METRIC: normalized growth
Numbers only.

Example entries and their recorded answers appear below.
COMPOUND	normalized growth
COC(=O)CCC(C)[C@H]1CCC2C3C(C[C@H](O)[C@@]21C)[C@@]1(C)CC[C@@H](O)C[C@H]1C[C@H]3O (stereo partly specified)	1.01
S=P(N1CC1)(N1CC1)N1CC1	1
C=C1C2CCC3(C)C(c4ccoc4)OC(=O)CC13OC1CC(OC(C)=O)C(C)(C)C(CC(=O)OC)C12C (stereo unspecified)	1.02
CC(=O)Nc1nnc(S(N)(=O)=O)s1	1

Answer for every listed entry: what is its normalized growth? The entries follow.
1. C=C1C2CC[C@@]3(C)[C@H](c4ccoc4)OC(=O)C[C@]13O[C@H]1CC(O)C(C)(C)C(CC(=O)OC)[C@@]21C (stereo partly specified)
2. Nc1ccn(C2O[C@H](CO)[C@@H](O)[C@H]2O)c(=O)n1 (stereo partly specified)

1. 0.962
2. 0.985
